- Method Description: Solubility trials: saturation concentration of the oxazaphosphorine in water / aqueous urea solution
- Particulars: aqueous urea solution, Cyclophosphamid-Endkonzentration, Harnstoff-Startkonzentration 40 % (G/V); Harnstoff-Endkonzentration 30,3 % (G/G)
Property Name: solubility
Write your answer as a measured quantity: the number, then the unit.

Task: Tell me solubility reported for O=P1(N(CCCl)CCCl)NCCCO1 (stereo not shown)
Output: 172 mg/mL

* * *

- Method Description: Solubility trials: saturation concentration of the oxazaphosphorine in water / aqueous urea solution
- Particulars: water, Sättigungskonzentration in Wasser, in Wasser
Property Name: solubility

Task: Indicate its recorded solubility; the compound in question is O=P1(N(CCCl)CCCl)NCCCO1 (centres unmarked) [Cyclophosphamid]
Output: ~60 mg/mL

Now turn to the next compound.
Task: Please report solubility for the following compound: O=P1(NCCCl)OCCCN1CCCl (centres unmarked) [Ifosfamid]
Output: ~120 mg/mL

* * *

- Method Description: Solubility trials: saturation concentration of the oxazaphosphorine in water / aqueous urea solution
- Particulars: aqueous urea solution, Cyclophosphamid-Endkonzentration, Harnstoff-Startkonzentration 20 % (G/V); Harnstoff-Endkonzentration 17,0 % (G/G)
Property Name: solubility (mg/mL)
Report as a plain number; the unit mg/mL is understood.

Task: State its solubility for this compound: O=P1(N(CCCl)CCCl)NCCCO1 (stereo not shown)
Output: 112

* * *

- Method Description: Solubility trials: saturation concentration of the oxazaphosphorine in water / aqueous urea solution
- Particulars: aqueous urea solution, Cyclophosphamid-Endkonzentration, Harnstoff-Startkonzentration 30 % (G/V); Harnstoff-Endkonzentration 24,2 % (G/G)
Property Name: solubility (mg/mL)
Just the number in mg/mL, nothing appended.

Task: Name the recorded solubility of the item O=P1(N(CCCl)CCCl)NCCCO1 (stereo not shown) in your answer.
Output: 136

* * *

- Method Description: Solubility trials: saturation concentration of the oxazaphosphorine in water / aqueous urea solution
- Particulars: aqueous urea solution, Ifosfamid-Endkonzentration, Harnstoff-Startkonzentration 4,0 % (G/V); Harnstoff-Endkonzentration 3,2 % (G/G)
Property Name: solubility (mg/mL)
Expressed in mg/mL, but write only the number.

Task: Item O=P1(NCCCl)OCCCN1CCCl (stereo not shown) : provide solubility
Output: 147

* * *

- Method Description: Solubility trials: saturation concentration of the oxazaphosphorine in water / aqueous urea solution
- Particulars: aqueous urea solution, Ifosfamid-Endkonzentration, Harnstoff-Startkonzentration 40 % (G/V); Harnstoff-Endkonzentration 34,3 % (G/G)
Property Name: solubility (mg/mL)
State the answer as a number, implicitly in mg/mL.

Task: State its solubility: O=P1(NCCCl)OCCCN1CCCl (stereo not shown) [Ifosfamid]
Output: 462

* * *

- Method Description: Solubility trials: saturation concentration of the oxazaphosphorine in water / aqueous urea solution
- Particulars: aqueous urea solution, Cyclophosphamid-Endkonzentration, Harnstoff-Startkonzentration 50 % (G/V); Harnstoff-Endkonzentration 45,2 % (G/G)
Property Name: solubility (mg/mL)
# output: bare number, implied unit mg/mL

Task: Please indicate solubility recorded for O=P1(N(CCCl)CCCl)NCCCO1 (stereo not shown)
Output: 152

* * *

- Method Description: Solubility trials: saturation concentration of the oxazaphosphorine in water / aqueous urea solution
- Particulars: aqueous urea solution, Ifosfamid-Endkonzentration, Harnstoff-Startkonzentration 50 % (G/V); Harnstoff-Endkonzentration 42,1 % (G/G)
Property Name: solubility (mg/mL)
API: value field is a number in mg/mL; no unit string.

Task: Identify measured solubility corresponding to O=P1(NCCCl)OCCCN1CCCl (stereo not shown)
Output: 443

Numbers sourced from patent EP1023075B1.
